Reported values of Inhibitory index for individual entries
# System: Human alphaherpesvirus 1
# experiment_description: Inhibitory index against HSV-1 ribonucleotide reductase
When you answer, write just the number.

Take a look at these entries with their results.
# smiles_record, tgt, numeric_readout
records = [
    ("C/C(=N\\N=C(/S)N/N=C(\\S)Nc1cccc(I)c1)c1ccccn1", "Human alphaherpesvirus 1", 34),
    ("C/C(=N\\N=C(/S)N/N=C(\\S)Nc1ccccc1Br)c1ccccn1", "Human alphaherpesvirus 1", 34),
]

// next item, Inhibitory index requested
Qu. Please state recorded Inhibitory index (tested on Human alphaherpesvirus 1) of `C/C(=N\N=C(/S)N/N=C(\S)Nc1ccccc1Cl)c1ccccn1`
Ans. 27
